# experiment.description: Primary qHTS for Vero E6 cytotoxicity: counterscreen for inhibitors of SARS-S pseudo-typed particle cell entry (AID 1479150)
# settings: cell viability; series mostly up to 57.1 µM
Records with an inconclusive call do not appear. The source made the active and inactive calls. Calls follow the shape of the full dose curve.
measurement.kind: outcome

CCC1(C)CC(=O)NC(=O)C1 = inactive
CCCCC[C@@H](O)C1C(=O)OC(C)[C@H](O)/C=C/C=C/C=C/C=C/C=C(\C)C(O)C(O)C(O)C[C@H](O)C[C@H](O)C[C@H](O)C[C@H](O)C[C@@H]1O (stereo not given in full) = inactive
CCN(CC)C(=O)N[C@H]1C[C@@H]2c3cccc4[nH]cc(c34)C[C@H]2N(C)C1 = inactive
O=C1C[C@@H]2OCC=C3CN4CC[C@]56c7ccccc7N1[C@H]5[C@H]2[C@H]3C[C@H]46 = inactive
CCOC(=O)c1ccccc1C(=O)OCC = inactive
